Tested on: BxPC-3
Assay: MTT cell proliferation assay, BxPC-3
Type: cell-based
Settings: Homo sapiens; BxPC-3 cell line (pancreas)
pIC50: −log10 of the molar value.
readoutKind: pIC50

// below: answered molecules
Report measured pIC50; entry is CC1(CO)C(O)C(n2cnc3c(N)nc(Cl)nc32)O[C@@H]1CO (stereo in doubt)
< 3.30

Provide only the value of recorded pIC50 for O=c1[nH]cc(F)c(=O)[nH]1 [5-FU, 5-fluorouracil, reference compound]
3.66

Next:
Retrieve pIC50 measured for C[C@@]1(CO)[C@@H](CO)O[C@@H](n2ccc(N)nc2=O)[C@@H]1O and print it.
< 3.30

Supply measured pIC50 of Nc1ccn([C@@H]2O[C@H](CO)[C@@H](O)C2(F)F)c(=O)n1 [Gemci., Gemcitabine, reference compound] in your reply.
> 6.30

Look up and report measured pIC50 for this entry: CCOC(=O)C1(C)[C@@H](CO)O[C@H](n2cnc3c(NN)nc(NN)nc32)[C@@H]1O (stereo partly shown)
4.05

Specify reported pIC50 for the molecule shown: C[C@]1(C(N)=O)[C@H](O)[C@@H](n2ccc(N)nc2=O)O[C@@H]1CO
< 3.30

Please list pIC50 recorded for the molecule C[C@@]1(CO)[C@@H](CO)O[C@@H](n2cc(F)c(N)nc2=O)[C@@H]1O
< 3.30
